metric-name: melting point

**Query** Please give the measured melting point for this molecule: CCc1nc(N)ccc1-c1cccc2ccc(N)nc12.Cl.Cl
**Result** 200 to 250 °C

**Query** Need melting point, item CCc1nc(N)ccc1-c1cc(C)cc2cccnc12.Cl
**Result** 100 to 140 °C

**Query** So what's the measured melting point for this one? Cl.Nc1ccc(-c2c(F)ccc3ccc(O)nc23)c(N)n1
**Result** 210 to 230 °C

**Query** Bench note: what melting point did CCc1nc(N)ccc1-c1c(F)ccc2ccc(C)nc12.Cl show?
**Result** 95 to 120 °C

**Query** Find the recorded melting point belonging to CCc1nc(N)ccc1-c1cccc2ccc(C(=O)N3CC4CCC(C3)O4)nc12.Cl and report it.
**Result** 150 to 160 °C

**Query** Reported melting point, molecule CCc1nc(N)ccc1-c1c(F)cc(F)c2ccc(=O)[nH]c12.Cl : ____
**Result** > 250 °C

**Query** Request the reported melting point associated with CCc1nc(N)ccc1-c1ccccc1-c1ccc(N2CCOCC2)nc1.Cl
**Result** 95 to 110 °C

**Query** Which melting point is listed for CCc1nc(N)ccc1-c1cccn2ccnc12.Cl ?
**Result** 95 to 135 °C

**Query** Please report the recorded melting point for CCc1nc(N)ccc1-c1c(OC(F)F)ccc2cccnc12.Cl .
**Result** 120 to 160 °C

**Query** Fill blank: measured melting point of the molecule Cl.Nc1ccc(-c2cccc3ccc(=O)[nH]c23)c(N)n1 is ____.
**Result** > 250 °C

**Query** What value of measured melting point is listed for Cl.Nc1ccc(-c2c(F)c(F)cc3ccc(O)nc23)c(N)n1 ?
**Result** > 250 °C

**Query** Record request: melting point value, item CCc1nc(N)ccc1-c1cccc2ccc(-c3cnccc3C)nc12.Cl
**Result** 180 to 188 °C

**Query** Given CCc1nc(N)ccc1-c1cccc2cccnc12.Cl , state its recorded melting point.
**Result** > 250 °C

**Query** Reported melting point for CCc1nc(N)ccc1-c1cccc2c1N(C)CC2.Cl : what is it?
**Result** > 250 °C

**Query** Which melting point is reported for this molecule? CCc1nc(N)ccc1-c1ccc(F)cc1-c1ccc(N2CCOCC2)nc1.Cl
**Result** 54 to 70 °C

**Query** What melting point value was documented for this molecule, CCc1nc(N)ccc1-c1cccc2ccc(-c3ccccn3)nc12.Cl ?
**Result** 111 to 116 °C

**Query** For the molecule CCc1nc(N)ccc1-c1c(F)ccc2c1OCC=CC2.Cl , what melting point is on record?
**Result** 43 to 52 °C

**Query** Which value of melting point has been reported for Nc1ccc(-c2csc3ccc(F)cc23)c(N)n1 in the records?
**Result** 116 to 118 °C

**Query** Entry under review: Cl.Nc1ccc(-c2cccc3[nH]ccc23)c(N)n1 . Reported melting point?
**Result** 150 to 154 °C

---

Give pIC50 for every item shown.
- experimental-system: human NPFFR1 (hNPFFR1) receptor (Homo sapiens)
- method-description: Human NPFFR1 evaluation using BRET biosensors (antagonist IC50)
- experimental-context: hNPFFR1 transiently over-expressed in HEK-293 T cells; BRET signal; stimulation by EC80 RFRP-3
pIC50: −log10 of the molar value.

**Query** GET /values?readout=pIC50&item= CCc1nc(N)ccc1-c1cccc2sccc12 [Example 78]
**Result** 6.00 to 7.00

**Query** Which measured pIC50 value corresponds to CCc1nc(N)ccc1-c1c(F)c(F)cc2cc(O)cnc12.Cl [Example 112] ?
**Result** 6.00 to 7.00

**Query** What does the data say about its pIC50? Entry: Nc1ccc(-c2cccc3cnccc23)c(N)n1 [Example 33, 3-(5-Isoquinolyl)pyridine-2,6-diamine]
**Result** 6.00 to 7.00

**Query** Which pIC50 value is on record for CCc1nc(N)ccc1-c1cccc2c1NC(=O)C2.Cl [Example 163] ?
**Result** 6.00 to 7.00

**Query** Value lookup for pIC50; key = Cl.Cn1nccc1-c1ccccc1-c1ccc(N)nc1N [Example 48]
**Result** < 6.00

**Query** Record request: pIC50 value, item CCc1nc(N)ccc1-c1cccc2ccc(C(=O)N3CCCCCC3)nc12.Cl [Example 169]
**Result** > 7.00

**Query** What does the record list as pIC50 for CCc1nc(N)ccc1-c1cccc2c(C)ccnc12.Cl [Example 91] ?
**Result** 6.00 to 7.00

**Query** Can you share its pIC50? I mean this compound: CCc1nc(N)ccc1-c1cccc2ccoc12 [Example 79]
**Result** 6.00 to 7.00

**Query** State the recorded pIC50 for this entry: CCc1nc(N)ccc1-c1ccccc1-c1ccc(N2CCCCC2)nc1.Cl [Example 80]
**Result** 6.00 to 7.00

**Query** Suppose we examine the compound Cl.Nc1ccc(-c2c(F)ccc3ccc(O)nc23)c(N)n1 [Example 62] ; what pIC50 value has been reported?
**Result** > 7.00

---

metric-name: melting point

**Query** Reported melting point, compound CCc1nc(N)ccc1-c1ccccc1-c1ccc(F)nc1.Cl [Example 87] : ____
**Result** > 250 °C

**Query** Reported melting point, compound CCc1nc(N)ccc1-c1cccc2ccc(C(F)(F)F)nc12.Cl [Example 99] : ____
**Result** 90 to 130 °C

**Query** // melting point lookup, key: CCc1nc(N)ccc1-c1cccc2cc3c(nc12)CCCC3.Cl [Example 113]
**Result** 160 to 172 °C

**Query** Report melting point for CCc1nc(N)ccc1-c1c(F)ccc2cc(-c3ccccc3)cnc12.Cl [Example 107] please.
**Result** > 250 °C

---

- experimental-system: human NPFFR1 (hNPFFR1) receptor (Homo sapiens, UniProt Q9GZQ6)
- Sequence (Q9GZQ6 whole entry): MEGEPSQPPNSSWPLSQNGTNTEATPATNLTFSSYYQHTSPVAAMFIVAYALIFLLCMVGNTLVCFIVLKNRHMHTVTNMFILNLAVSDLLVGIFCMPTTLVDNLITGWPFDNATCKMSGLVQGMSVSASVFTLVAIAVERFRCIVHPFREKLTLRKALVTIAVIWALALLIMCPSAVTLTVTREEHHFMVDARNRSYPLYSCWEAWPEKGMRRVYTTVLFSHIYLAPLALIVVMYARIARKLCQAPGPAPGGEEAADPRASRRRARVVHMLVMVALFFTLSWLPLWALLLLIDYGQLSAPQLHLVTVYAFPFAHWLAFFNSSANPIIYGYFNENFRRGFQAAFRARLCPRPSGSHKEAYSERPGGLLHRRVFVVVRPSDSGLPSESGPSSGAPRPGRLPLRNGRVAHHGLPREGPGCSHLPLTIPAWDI
- method-description: Human NPFFR1 evaluation using BRET biosensors (antagonist IC50)
- experimental-context: hNPFFR1 transiently over-expressed in HEK-293 T cells; BRET signal; stimulation by EC80 RFRP-3
- Procedure: Compounds of the present invention were tested successively for their agonist and antagonist activities on human NPFFR1 (hNPFFR1) receptor transiently over-expressed in HEK-293 T cells. […] Receptor activity is detected by changes in BRET signal. […] Compounds and luciferase substrate are added to the cells using an automated device (Freedom Evo®, Tecan) and BRET readings are collected on EnVision (PerkinElmer) with specific filters (410 nm BW 80 nm, 515 nm BW 30 nm). […]
metric-name: IC50

**Query** Please tell me: IC50 of CCc1nc(N)ccc1-c1cccc2ccc(N3CCCOCC3)nc12.Cl [Example 133] , system human NPFFR1 (hNPFFR1) receptor (Homo sapiens, UniProt Q9GZQ6)?
**Result** < 100 nM

**Query** Request body: readout IC50, system human NPFFR1 (hNPFFR1) receptor (Homo sapiens, UniProt Q9GZQ6), query Cl.Nc1ccc(-c2cccc3c2OCCC3)c(N)n1 [Example 37, 3-Chroman-8-yl-pyridine-2,6-diamine] . Return the value.
**Result** < 100 nM

**Query** # get_value(readout= IC50, system= human NPFFR1 (hNPFFR1) receptor (Homo sapiens, UniProt Q9GZQ6)) for CCc1nc(N)ccc1-c1c(F)ccc2cccnc12.Cl [Example 65]
**Result** < 100 nM

**Query** Notebook: pull reported IC50 for human NPFFR1 (hNPFFR1) receptor (Homo sapiens, UniProt Q9GZQ6), entry Cl.Nc1ccc(-c2csc3ccccc23)c(N)n1 [Example 21]
**Result** 100 to 1000 nM

**Query** GET /values?readout=IC50&system=human NPFFR1 (hNPFFR1) receptor (Homo sapiens, UniProt Q9GZQ6)&item= CCc1nc(N)ccc1-c1cccc2ccc(C(=O)N3CCCOCC3)nc12.Cl [Example 167]
**Result** < 100 nM

**Query** human NPFFR1 (hNPFFR1) receptor (Homo sapiens, UniProt Q9GZQ6) / IC50 / CCc1nc(N)ccc1-c1cccc2ccc(COC)nc12.Cl [Example 142] : value?
**Result** < 100 nM

**Query** Return IC50 measured with human NPFFR1 (hNPFFR1) receptor (Homo sapiens, UniProt Q9GZQ6) given this molecule: Nc1ccc(-c2c[nH]c3ccccc23)c(N)n1 [Example 18, 3-(1H-indol-3-yl)pyridine-2,6-diamine]
**Result** > 1000 nM

**Query** Quick check: IC50 on human NPFFR1 (hNPFFR1) receptor (Homo sapiens, UniProt Q9GZQ6), item Cl.Nc1ccc(-c2cccc3cccnc23)c(C2CC2)n1 [Example 14] ?
**Result** 100 to 1000 nM

**Query** Kindly state the measured IC50 obtained for Nc1ccc(-c2c(F)ccc3cc(Cl)cnc23)c(N)n1 [Example 60] with human NPFFR1 (hNPFFR1) receptor (Homo sapiens, UniProt Q9GZQ6).
**Result** < 100 nM

**Query** Tell me reported IC50 for CCc1nc(N)ccc1-c1cccc2nccn12.Cl [Example 103] , tested with human NPFFR1 (hNPFFR1) receptor (Homo sapiens, UniProt Q9GZQ6).
**Result** > 1000 nM

**Query** Checklist item: IC50 tested on human NPFFR1 (hNPFFR1) receptor (Homo sapiens, UniProt Q9GZQ6), entry CCc1nc(N)ccc1-c1ccccc1-c1cncc(C)c1.Cl [Example 85] , value?
**Result** 100 to 1000 nM

**Query** What value of IC50 on human NPFFR1 (hNPFFR1) receptor (Homo sapiens, UniProt Q9GZQ6) does CCc1nc(N)ccc1-c1csc2ccc(F)cc12.Cl [Example 43] have?
**Result** 100 to 1000 nM

**Query** Please state recorded IC50 (tested on human NPFFR1 (hNPFFR1) receptor (Homo sapiens, UniProt Q9GZQ6)) of CCc1nc(N)ccc1-c1cccc2cc3c(nc12)CCCC3.Cl [Example 113]
**Result** < 100 nM

**Query** Request: IC50, test system human NPFFR1 (hNPFFR1) receptor (Homo sapiens, UniProt Q9GZQ6), entry CCc1nc(N)ccc1-c1c(F)ccc2cc(Br)cnc12 [Example 151]
**Result** < 100 nM

**Query** Give recorded IC50 with human NPFFR1 (hNPFFR1) receptor (Homo sapiens, UniProt Q9GZQ6) for the following molecule: Cl.Nc1ccc(-c2cccc3c2OCC3)c(N)n1 [Example 28]
**Result** 100 to 1000 nM

**Query** Which measured IC50 belongs to CCc1nc(N)ccc1-c1nccc2cccnc12.Cl [Example 100] , tested on human NPFFR1 (hNPFFR1) receptor (Homo sapiens, UniProt Q9GZQ6)?
**Result** > 1000 nM

**Query** Query for human NPFFR1 (hNPFFR1) receptor (Homo sapiens, UniProt Q9GZQ6): what IC50 does the record show for Cl.Nc1ccc(-c2cccc3ccncc23)c(N)n1 [Example 32, 3-Isoquinolin-8-yl-pyridine-2,6-diamine] ?
**Result** < 100 nM

**Query** Form field - read-out: IC50; system: human NPFFR1 (hNPFFR1) receptor (Homo sapiens, UniProt Q9GZQ6); submitted item: CCc1nc(N)ccc1-c1ccc(F)c2cccnc12.Cl [Example 1]
**Result** < 100 nM
